Just for reference, paper PMC5540273 is where these values come from.

- Tested on: PHKG1;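 note: KINOMEscan kinase panel screen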
- conditionInfo: concentration: 1 μM,replicates: in singlicate; n = 1
Define the label as Y when %Inh is strictly less than 20% and as N in all remaining cases.

[
  {
    "compound": "Cc1ccc2c(-c3ccncc3)c(-c3ccc(F)cc3)nn2c1.Cl",
    "classification": "N"
  },
  {
    "compound": "O=C(NCCCN1CCOC1=O)c1cnc(NCc2cc(Cl)ccc2Cl)nc1NC1CCCC1",
    "classification": "Y"
  },
  {
    "compound": "NC(=O)c1cc(-c2ccccc2)cc2c(C3CCNCC3)c[nH]c12",
    "classification": "Y"
  },
  {
    "compound": "CN(C)CCOc1ccc(-c2cc(-c3c[nH]nc3-c3ccccn3)ccn2)cc1",
    "classification": "N"
  },
  {
    "compound": "C[C@@H](Oc1cc(-c2cnn(C3CCNCC3)c2)cnc1N)c1c(Cl)ccc(F)c1Cl",
    "classification": "N"
  },
  {
    "compound": "CN(C)CC(O)COc1ccc(Nc2nccc(-c3cnn4nc(N5CCOCC5)ccc34)n2)cc1 (centres unmarked)",
    "classification": "N"
  },
  {
    "compound": "CC(C)Nc1cc(-c2ccc3c(N)n[nH]c3c2)nc(N)n1",
    "classification": "Y"
  },
  {
    "compound": "COc1ccc(C[C@@H](CN)NC(=O)c2cc(Br)c(-c3ccnc4[nH]ccc34)s2)cc1.Cl.Cl",
    "classification": "N"
  }
]
